Experiment: half-life in culture medium
Type: in vitro ADME
Settings: M199 culture medium with 10% heat-inactivated FBS; unpublished data
Where a SMILES comes first, the peptide text is derived from it.
parameter: half-life

For the compound CC(C)C[C@H](NC(=O)[C@@H](N)CCCNC(=N)N)C(=O)N[C@@H](Cc1ccc(O)cc1)C(=O)N[C@@H](CCC(=O)O)C(=O)O [RLYE, Arg-Leu-Tyr-Glu] (H-RLYE-OH) , give its reported half-life.
> 18 h
